system: Staphylococcus aureus; experiment: Antibacterial activity against Staphylococcus aureus subsp. aureus Newman assessed as growth inhibiiton after 18 hrs; assay type: functional
In plain terms, low MIC, meaning strictly below 6 µg/mL, gives 1.0, and everything else gives 0.0.

[
  {
    "LINE_NOTATION": "CO[C@H]1/C=C/O[C@@]2(C)Oc3c(C)c(O)c4c(O)c(c(/C=N/N5CCN(C)CC5)c(O)c4c3C2=O)NC(=O)/C(C)=C\\C=C\\[C@H](C)[C@H](O)[C@@H](C)[C@@H](O)[C@@H](C)[C@H](OC(C)=O)[C@@H]1C",
    "ASSAY_TARGET": "Staphylococcus aureus",
    "GROUP": 1.0
  },
  {
    "LINE_NOTATION": "CCCCN(Cc1ccccc1)C(=O)Nc1cc(-c2ccc(Cl)c(Cl)c2)sc1C(=O)O",
    "ASSAY_TARGET": "Staphylococcus aureus",
    "GROUP": 0.0
  },
  {
    "LINE_NOTATION": "O=C(O)c1sc(-c2ccc(Cl)c(Cl)c2)cc1NC(=O)N(Cc1ccccc1)Cc1ccccc1",
    "ASSAY_TARGET": "Staphylococcus aureus",
    "GROUP": 1.0
  }
]

Request: # check: MIC < 6 µg/mL for CCN(Cc1ccccc1)C(=O)Nc1cc(-c2ccc(Cl)c(Cl)c2)sc1C(=O)O
Result: 0.0

Request: # check: MIC < 6 µg/mL for CCN(Cc1ccccc1)C(=O)Nc1cc(-c2ccc(OC(F)(F)F)cc2)sc1C(=O)O
Result: 0.0

Request: # check: MIC < 6 µg/mL for CCCCCNC(=O)Nc1cc(-c2ccc(Cl)c(Cl)c2)sc1C(=O)O
Result: 0.0

Request: # check: MIC < 6 µg/mL for CCCC/C(C)=C/C=C(\C)C(=O)c1c(O)cc([C@H](C)CC/C=C/NC(=O)OC)oc1=O
Result: 1.0

---

Catalogue of compounds with associated pIC50
test: Inhibition of Escherichia coli RNAP assessed as incorporation of [5,6-3H]UTP preincubated for 10 mins followed by DNA template and ATP, CTP, GTP, UTP, [5,6-3H]UTP addition measured after 10 mins by scintillation counting analysis
Please reply with the number alone, leaving off any unit.

[
  {
    "LINE_NOTATION": "CCN(Cc1ccccc1)C(=O)Nc1cc(-c2cccc([N+](=O)[O-])c2)sc1C(=O)O",
    "pIC50": 4.1
  },
  {
    "LINE_NOTATION": "CCN(Cc1ccccc1)C(=O)Nc1cc(-c2ccc(Cl)cc2)sc1C(=O)O",
    "pIC50": 4.12
  },
  {
    "LINE_NOTATION": "CCN(Cc1ccccc1)C(=O)Nc1cc(-c2ccccc2)sc1C(=O)O",
    "pIC50": 3.52
  },
  {
    "LINE_NOTATION": "CCN(Cc1ccccc1)C(=O)Nc1cc(-c2ccc([N+](=O)[O-])cc2)sc1C(=O)O",
    "pIC50": 4.14
  },
  {
    "LINE_NOTATION": "CCN(Cc1ccccc1)C(=O)Nc1cc(-c2cc(Cl)ccc2Cl)sc1C(=O)O",
    "pIC50": 4.46
  }
]

For reference, reported pIC50 for CCN(Cc1ccccc1)C(=O)Nc1cc(-c2ccc(Cl)cc2Cl)sc1C(=O)O stands at 4.49

For reference, reported pIC50 for CCN(Cc1ccccc1)C(=O)Nc1cc(-c2ccc(C)cc2)sc1C(=O)O stands at 3.86

For reference, reported pIC50 for CCN(Cc1ccccc1)C(=O)Nc1cc(-c2ccc(OC)cc2)sc1C(=O)O stands at 3.62

For reference, reported pIC50 for CCN(Cc1ccccc1)C(=O)Nc1cc(-c2cccc(C(F)(F)F)c2)sc1C(=O)O stands at 4.28
